For each entry below, report its fa (fraction of fluorophore accessible to the quencher), apo-Tf value.
test-target: Apo-transferrin (apo-Tf) (Homo sapiens)
Construct: purchased Sigma Aldrich Chemical Co. (Schnelldorf, Germany)
Sequence (P02787 20-698): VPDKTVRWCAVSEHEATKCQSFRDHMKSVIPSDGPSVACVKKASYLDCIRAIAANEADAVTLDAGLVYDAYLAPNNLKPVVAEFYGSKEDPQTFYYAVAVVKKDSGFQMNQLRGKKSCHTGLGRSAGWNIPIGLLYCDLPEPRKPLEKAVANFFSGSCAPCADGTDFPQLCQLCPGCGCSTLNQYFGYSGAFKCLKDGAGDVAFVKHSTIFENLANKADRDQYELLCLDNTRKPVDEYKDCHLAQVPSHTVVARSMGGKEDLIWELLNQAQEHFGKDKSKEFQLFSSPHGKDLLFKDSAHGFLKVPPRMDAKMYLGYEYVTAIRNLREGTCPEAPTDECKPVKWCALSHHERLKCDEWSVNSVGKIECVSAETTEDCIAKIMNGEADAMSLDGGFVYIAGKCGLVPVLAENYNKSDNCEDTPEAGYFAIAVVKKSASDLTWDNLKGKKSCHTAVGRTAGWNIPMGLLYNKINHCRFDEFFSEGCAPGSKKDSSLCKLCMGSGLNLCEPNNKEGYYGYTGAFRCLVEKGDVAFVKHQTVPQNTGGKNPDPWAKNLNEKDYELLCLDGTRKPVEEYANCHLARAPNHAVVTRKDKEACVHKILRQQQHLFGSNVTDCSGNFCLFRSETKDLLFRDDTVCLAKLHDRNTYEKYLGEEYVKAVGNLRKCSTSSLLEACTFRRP
assay-info: Fluorescence quenching of apo-transferrin
Assay type: binding
particulars: 298 K, modified Stern-Volmer
Output spec: single numeric token, no unit.

[Q] What measured fa (fraction of fluorophore accessible to the quencher), apo-Tf goes with CCn1cc(C(=O)[O][La]([OH])[O]C(=O)c2cn(CC)c3cc4c(cc3c2=O)OCO4)c(=O)c2cc3c(cc21)OCO3.O [La oxo, [La(oxo)(OH)(H2O)]] ?
[A] 0.68

[Q] What measured fa (fraction of fluorophore accessible to the quencher), apo-Tf goes with CCn1cc(C(=O)[O][Eu]([OH])[O]C(=O)c2cn(CC)c3cc4c(cc3c2=O)OCO4)c(=O)c2cc3c(cc21)OCO3.O [Eu oxo, [Eu(oxo)(OH)(H2O)]] ?
[A] 0.81

[Q] What measured fa (fraction of fluorophore accessible to the quencher), apo-Tf goes with CCn1cc(C(=O)[O][Sm]([OH])[O]C(=O)c2cn(CC)c3cc4c(cc3c2=O)OCO4)c(=O)c2cc3c(cc21)OCO3.O.O [Sm oxo, [Sm(oxo)(OH)(H2O)] · H2O] ?
[A] 0.85

Data provenance is paper PMC7699381.
